Provenance of the data: paper PMC5700166

Target: GST-Nv-NF-kB (Cys allele) (Nematostella vectensis, UniProt E5G601 2-411)
Sequence: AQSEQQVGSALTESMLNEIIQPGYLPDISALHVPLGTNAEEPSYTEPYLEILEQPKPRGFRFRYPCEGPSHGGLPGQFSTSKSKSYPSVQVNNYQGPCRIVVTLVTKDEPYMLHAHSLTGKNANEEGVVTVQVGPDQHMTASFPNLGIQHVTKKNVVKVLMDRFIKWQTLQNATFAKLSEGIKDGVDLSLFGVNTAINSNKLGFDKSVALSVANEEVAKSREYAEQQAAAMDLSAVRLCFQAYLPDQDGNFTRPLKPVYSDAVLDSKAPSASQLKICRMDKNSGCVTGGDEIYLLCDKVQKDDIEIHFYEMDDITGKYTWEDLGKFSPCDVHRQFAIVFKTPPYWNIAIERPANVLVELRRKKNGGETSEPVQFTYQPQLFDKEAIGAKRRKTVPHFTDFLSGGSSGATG
Test: protein-binding microarray (PBM); PBM: ~300 nM protein, 6 mM HEPES pH 7.8, 80 mM KCl, 0.5 mM EDTA, 0.5 mM EGTA, 6% glycerol, 35 ng/ul poly-dIdC, 1% milk, 1 h, room temperature; high values mean tight binding
Settings: dsDNA, one strand shown
assay_readout: binding signal (z-score)

# seq_string, assay_readout, numeric_readout
data = [
    ("CCGATTAACATCAGGGGGTAACATGATGTTAATCGGGTCTTGATTCGCTTGACGCTGCTG", "binding signal", 3.69),
    ("CCGATTAACATCAAATATACCCCTGATGTTAATCGGGTCTTGATTCGCTTGACGCTGCTG", "binding signal", 3.4),
    ("CCGATTAACATCAAGGGGGAAATTGATGTTAATCGGGTCTTGATTCGCTTGACGCTGCTG", "binding signal", 8.6),
    ("CCGATTAACATCAAACATTCCCCTGATGTTAATCGGGTCTTGATTCGCTTGACGCTGCTG", "binding signal", 9.14),
    ("CCGATTAACATCACAGGGAATTCTGATGTTAATCGGGTCTTGATTCGCTTGACGCTGCTG", "binding signal", 5.56),
]

----------
Target: GST-Nv-NF-kB (Cys allele) (Nematostella vectensis, UniProt E5G601 2-411)
Sequence: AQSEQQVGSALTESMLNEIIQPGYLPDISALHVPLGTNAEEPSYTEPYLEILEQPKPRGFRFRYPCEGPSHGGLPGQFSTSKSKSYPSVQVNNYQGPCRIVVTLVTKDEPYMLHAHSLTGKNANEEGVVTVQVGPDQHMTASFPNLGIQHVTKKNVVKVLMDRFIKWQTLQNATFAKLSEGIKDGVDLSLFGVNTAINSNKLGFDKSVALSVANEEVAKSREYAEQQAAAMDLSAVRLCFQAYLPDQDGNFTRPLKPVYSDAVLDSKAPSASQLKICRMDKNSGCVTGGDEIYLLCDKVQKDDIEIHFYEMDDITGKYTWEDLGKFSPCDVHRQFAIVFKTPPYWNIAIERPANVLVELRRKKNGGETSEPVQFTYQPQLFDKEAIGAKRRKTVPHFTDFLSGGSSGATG
Experiment: protein-binding microarray (PBM); PBM: ~300 nM protein, 6 mM HEPES pH 7.8, 80 mM KCl, 0.5 mM EDTA, 0.5 mM EGTA, 6% glycerol, 35 ng/ul poly-dIdC, 1% milk, 1 h, room temperature; high values mean tight binding
Conditions: dsDNA, one strand shown
Each record gets a class by binding signal: low (below 4 z-score), intermediate (4 z-score to below 5 z-score), high (5 z-score or more)

# seq_string, classification
measured = [
    ("CCGATTAACATCAGGGAATTAGATGATGTTAATCGGGTCTTGATTCGCTTGACGCTGCTG", "low"),
    ("CCGATTAACATCAGGGGGAAATATGATGTTAATCGGGTCTTGATTCGCTTGACGCTGCTG", "high"),
    ("CCGATTAACATCAAATTCCCAAATGATGTTAATCGGGTCTTGATTCGCTTGACGCTGCTG", "low"),
    ("CCGATTAACATCAAAAACCCCCCTGATGTTAATCGGGTCTTGATTCGCTTGACGCTGCTG", "high"),
    ("CCGATTAACATCAAAACAACCCCTGATGTTAATCGGGTCTTGATTCGCTTGACGCTGCTG", "low"),
    ("CCGATTAACATCAAGGATTTCCCTGATGTTAATCGGGTCTTGATTCGCTTGACGCTGCTG", "high"),
    ("CCGATTAACATCAGCATTTTCCCTGATGTTAATCGGGTCTTGATTCGCTTGACGCTGCTG", "intermediate"),
    ("CCGATTAACATCAAGAAATTACCTGATGTTAATCGGGTCTTGATTCGCTTGACGCTGCTG", "low"),
    ("CCGATTAACATCAGGGGCTGTACTGATGTTAATCGGGTCTTGATTCGCTTGACGCTGCTG", "low"),
    ("CCGATTAACATCAGGGTAATACCTGATGTTAATCGGGTCTTGATTCGCTTGACGCTGCTG", "high"),
    ("CCGATTAACATCAAGCCCCCCCCTGATGTTAATCGGGTCTTGATTCGCTTGACGCTGCTG", "intermediate"),
    ("CCGATTAACATCAAAGCCCCCCCTGATGTTAATCGGGTCTTGATTCGCTTGACGCTGCTG", "intermediate"),
    ("CCGATTAACATCAGGAACATCCCTGATGTTAATCGGGTCTTGATTCGCTTGACGCTGCTG", "low"),
    ("CCGATTAACATCAAGTTTTTCCCTGATGTTAATCGGGTCTTGATTCGCTTGACGCTGCTG", "high"),
    ("CCGATTAACATCAGGGGGTTACATGATGTTAATCGGGTCTTGATTCGCTTGACGCTGCTG", "intermediate"),
    ("CCGATTAACATCACAAATTCCCATGATGTTAATCGGGTCTTGATTCGCTTGACGCTGCTG", "intermediate"),
    ("CCGATTAACATCAAGTCCCCCAATGATGTTAATCGGGTCTTGATTCGCTTGACGCTGCTG", "low"),
]

----------
Biological target: GST-Dm-Relish (Drosophila melanogaster, UniProt Q94527 99-473)
Sequence: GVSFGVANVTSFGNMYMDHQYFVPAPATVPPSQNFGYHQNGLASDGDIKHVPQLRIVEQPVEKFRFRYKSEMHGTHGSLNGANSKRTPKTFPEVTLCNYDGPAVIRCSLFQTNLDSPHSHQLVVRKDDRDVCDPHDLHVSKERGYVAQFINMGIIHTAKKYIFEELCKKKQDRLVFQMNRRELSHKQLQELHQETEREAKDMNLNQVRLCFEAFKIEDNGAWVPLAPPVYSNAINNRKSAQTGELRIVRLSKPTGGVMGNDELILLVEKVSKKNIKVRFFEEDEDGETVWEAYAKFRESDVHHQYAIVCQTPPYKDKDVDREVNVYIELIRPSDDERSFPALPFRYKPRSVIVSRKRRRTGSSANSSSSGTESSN
Test: protein-binding microarray (PBM); PBM: ~300 nM protein, 6 mM HEPES pH 7.8, 80 mM KCl, 0.5 mM EDTA, 0.5 mM EGTA, 6% glycerol, 35 ng/ul poly-dIdC, 1% milk, 1 h, room temperature; Ap Aiptasia and Nv Nematostella (sea anemones) / Co Capsaspora / Aq Amphimedon (sponge) / Dm Drosophila / Hu human; RHD is the Rel homology domain; high values mean tight binding
Conditions: dsDNA, one strand shown
Each record gets a class by binding signal: low end: < 3 z-score; middle: ≥ 3 z-score and < 7 z-score; high end: ≥ 7 z-score

# seq_string, classification
records = [
    ("CCGATTAACATCACTGGGAAAACTGATGTTAATCGGGTCTTGATTCGCTTGACGCTGCTG", "low end"),
    ("CCGATTAACATCAGAGCCCCCCCTGATGTTAATCGGGTCTTGATTCGCTTGACGCTGCTG", "middle"),
    ("CCGATTAACATCAGGGGAAATCATGATGTTAATCGGGTCTTGATTCGCTTGACGCTGCTG", "middle"),
    ("CCGATTAACATCAAAAATCCCCCTGATGTTAATCGGGTCTTGATTCGCTTGACGCTGCTG", "high end"),
    ("CCGATTAACATCAGGGGAAACCATGATGTTAATCGGGTCTTGATTCGCTTGACGCTGCTG", "middle"),
    ("CCGATTAACATCAGAAAACCCCATGATGTTAATCGGGTCTTGATTCGCTTGACGCTGCTG", "high end"),
    ("CCGATTAACATCAGGAATTCCAATGATGTTAATCGGGTCTTGATTCGCTTGACGCTGCTG", "low end"),
    ("CCGATTAACATCAGGGGTTTTACTGATGTTAATCGGGTCTTGATTCGCTTGACGCTGCTG", "high end"),
    ("CCGATTAACATCAAGGGGGGGACTGATGTTAATCGGGTCTTGATTCGCTTGACGCTGCTG", "middle"),
    ("CCGATTAACATCAGGAGATACCCTGATGTTAATCGGGTCTTGATTCGCTTGACGCTGCTG", "middle"),
    ("CCGATTAACATCAAAAAAATTTCTGATGTTAATCGGGTCTTGATTCGCTTGACGCTGCTG", "low end"),
    ("CCGATTAACATCAGGGGATATTATGATGTTAATCGGGTCTTGATTCGCTTGACGCTGCTG", "middle"),
    ("CCGATTAACATCAGGGAAATACATGATGTTAATCGGGTCTTGATTCGCTTGACGCTGCTG", "high end"),
    ("CCGATTAACATCACAAAATTCCCTGATGTTAATCGGGTCTTGATTCGCTTGACGCTGCTG", "middle"),
    ("CCGATTAACATCAACAATCCCCCTGATGTTAATCGGGTCTTGATTCGCTTGACGCTGCTG", "middle"),
    ("CCGATTAACATCACGGCAATCCCTGATGTTAATCGGGTCTTGATTCGCTTGACGCTGCTG", "low end"),
    ("CCGATTAACATCAAGGGGGAATCTGATGTTAATCGGGTCTTGATTCGCTTGACGCTGCTG", "middle"),
    ("CCGATTAACATCAAAATTCCCGATGATGTTAATCGGGTCTTGATTCGCTTGACGCTGCTG", "middle"),
    ("CCGATTAACATCAGGAAGATCCCTGATGTTAATCGGGTCTTGATTCGCTTGACGCTGCTG", "low end"),
    ("CCGATTAACATCAGGGTTTCCCATGATGTTAATCGGGTCTTGATTCGCTTGACGCTGCTG", "high end"),
    ("CCGATTAACATCAGGGGGTGAAATGATGTTAATCGGGTCTTGATTCGCTTGACGCTGCTG", "middle"),
    ("CCGATTAACATCAGGTATTCCCATGATGTTAATCGGGTCTTGATTCGCTTGACGCTGCTG", "high end"),
    ("CCGATTAACATCACAGGATTTCCTGATGTTAATCGGGTCTTGATTCGCTTGACGCTGCTG", "low end"),
    ("CCGATTAACATCAGGGGGGTACCTGATGTTAATCGGGTCTTGATTCGCTTGACGCTGCTG", "middle"),
    ("CCGATTAACATCAAAAACCCCCCTGATGTTAATCGGGTCTTGATTCGCTTGACGCTGCTG", "high end"),
    ("CCGATTAACATCAACCCTCCCCCTGATGTTAATCGGGTCTTGATTCGCTTGACGCTGCTG", "low end"),
    ("CCGATTAACATCAGGAAACCCCATGATGTTAATCGGGTCTTGATTCGCTTGACGCTGCTG", "high end"),
    ("CCGATTAACATCACGGGGATTTCTGATGTTAATCGGGTCTTGATTCGCTTGACGCTGCTG", "high end"),
    ("CCGATTAACATCACGGTACGGGGTGATGTTAATCGGGTCTTGATTCGCTTGACGCTGCTG", "low end"),
    ("CCGATTAACATCAAATTTCCCAATGATGTTAATCGGGTCTTGATTCGCTTGACGCTGCTG", "low end"),
    ("CCGATTAACATCACGGGGGAAAATGATGTTAATCGGGTCTTGATTCGCTTGACGCTGCTG", "middle"),
    ("CCGATTAACATCAGCAATTTCCCTGATGTTAATCGGGTCTTGATTCGCTTGACGCTGCTG", "low end"),
    ("CCGATTAACATCAGAGAACCCCCTGATGTTAATCGGGTCTTGATTCGCTTGACGCTGCTG", "high end"),
]
